# TEST_TARGET: IDH1^R132C (Homo sapiens, UniProt O75874, R132C)
# Sequence (O75874 whole entry R132C): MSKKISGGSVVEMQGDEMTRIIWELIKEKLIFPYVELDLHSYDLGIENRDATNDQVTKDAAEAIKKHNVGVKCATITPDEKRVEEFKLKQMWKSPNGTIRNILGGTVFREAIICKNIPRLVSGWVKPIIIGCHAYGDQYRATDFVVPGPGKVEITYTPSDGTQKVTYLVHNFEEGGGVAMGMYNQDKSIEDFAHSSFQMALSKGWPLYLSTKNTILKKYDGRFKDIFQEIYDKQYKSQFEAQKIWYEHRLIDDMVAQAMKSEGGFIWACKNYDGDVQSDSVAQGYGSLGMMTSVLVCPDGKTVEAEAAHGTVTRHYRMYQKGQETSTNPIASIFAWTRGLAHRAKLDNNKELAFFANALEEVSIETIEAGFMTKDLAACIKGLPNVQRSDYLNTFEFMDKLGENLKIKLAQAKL
# TEST_METHOD_NOTES: NADPH depletion assay, IDH1 R132C
# Experimental: IDH mutated enzyme activity converting alpha-ketoglutarate to 2-hydroxyglutaric acid is measured using a NADPH depletion assay. In the assay the remaining cofactor is measured at the end of the reaction with the addition of a catalytic excess of diaphorase and resazurin, to generate a fluorescent signal in proportion to the amount of NADPH remaining. […]
Reported IC50 values are given for each entry in this list.

| COMPOUND | UNIT_TAG | IC50 |
| --- | --- | --- |
| CC(C)Cn1c(=O)ccc2cnc(N[C@@H](C)c3ccc(CN4CCC(F)(F)CC4)cc3)nc21 [cpd 104] | nM | 121 |
| C=CC(=O)N1CCN(C(CC)c2ccc([C@@H](C)Nc3ncc4ccc(=O)n(C(C)C)c4n3)cc2)CC1 (stereo in doubt) | nM | 44 |
| C[C@H](Nc1ncc2ccc(=O)n(CC(C)(C)C)c2n1)c1ccc(-c2ccsc2)cc1 | nM | 141 |
| C[C@H](Nc1ncc2ccc(=O)n(CC3CC3)c2n1)c1ccc(Cl)cc1 | nM | 332 |
| CC(Nc1ncc2ccc(=O)n(Cc3ccccc3F)c2n1)c1ccc(CN2CCC(F)(F)CC2)cc1 (stereo not shown) | nM | 323 |
| C[C@H](Nc1ncc2ccc(=O)n(CC(C)(C)CO)c2n1)c1ccc(-c2ccsc2)cc1 | nM | 54 |
| C[C@H](Nc1ncc2ccc(=O)n(CC(C)(C)C)c2n1)c1ccc(CN2CCC(F)(F)CC2)c(F)c1 | nM | 30 |
| C[C@H](Nc1ncc2ccc(=O)n(Cc3ccc(C#N)cc3)c2n1)c1ccc(Cl)cc1 | nM | 336 |
| C[C@H](Nc1ncc2ccc(=O)n(CC(C(F)(F)F)C(F)(F)F)c2n1)c1ccc(CN2CCC(F)(F)CC2)cc1 | nM | 307 |
| CC(C)Cn1c(=O)ccc2cnc(N[C@@H](C)c3ccc(Cl)cc3)nc21 | nM | 203 |
| C=CC(=O)N1CCN(c2ccc([C@H](C)Nc3ncc4ccc(=O)n([C@@H](C)C(C)C)c4n3)cc2F)CC1 | nM | 63 |
| C=CC(=O)N1CCN(Cc2ccc([C@H](C)Nc3ncc4ccc(=O)n(CC)c4n3)cc2)[C@@H](C)C1 | nM | 183 |
| COC(=O)c1ccc([C@H](C)Nc2ncc3ccc(=O)n(CC(C)(C)C)c3n2)cc1 | nM | 181 |
| CCCC(C)(CO)Cn1c(=O)ccc2cnc(N[C@@H](C)c3ccc(CN4CCC(F)(F)CC4)cc3)nc21 (stereo partly shown) | nM | 108 |
| COC(=O)C(C)(C)Cn1c(=O)ccc2cnc(N[C@@H](C)c3ccc4ccccc4c3)nc21 | nM | 805 |
| C=CC(=O)N1CCN(Cc2ccc([C@H](C)Nc3nc(N)c4ccc(=O)n(C(C)C)c4n3)cc2)CC1 | nM | 15 |

* * *

# TEST_TARGET: IDH2^R172K (Homo sapiens, UniProt P48735, R172K)
# TEST_METHOD_NOTES: NADPH depletion assay, IDH2 R172K
pIC50: −log10 of the molar value.

| COMPOUND | pIC50 |
| --- | --- |
| CC(C)[C@H](C)n1c(=O)ccc2cnc(N[C@@H](C)c3cc4cc(Cl)ccc4[nH]c3=O)nc21 [cpd 172] | 5.45 |
| C[C@H](Nc1ncc2ccc(=O)n(CC(C)(C)C#N)c2n1)c1ccc2ccccc2c1 [cpd 129] | 5.18 |
| C=CC(=O)N1CCN(C(CC)c2ccc([C@H](C)Nc3ncc4ccc(=O)n(C(C)C)c4n3)cc2)CC1 (some centres unmarked) [cpd 187] | 7.74 |
| C[C@H](Nc1ncc2ccc(=O)n(CC(C)(C)C)c2n1)c1ccc(CN2CCCC(F)(F)C2)cc1 [cpd 117] | 5.26 |
| C[C@H](Nc1ncc2ccc(=O)n(Cc3ccc(C#N)cc3)c2n1)c1ccc(Cl)cc1 [cpd 27] | 5.59 |
| C=CC(=O)N1CCN(Cc2ccc([C@H](C)Nc3ncc4ccc(=O)n([C@@H](C)C(F)(F)F)c4n3)cc2)CC1 [cpd 169] | 6.38 |
| C[C@H](Nc1ncc2ccc(=O)n(Cc3ccc(F)cc3)c2n1)c1ccc(Cl)cc1 [cpd 28] | 5.60 |
| C[C@H](Nc1ncc2ccc(=O)n([C@@H](C)C3CCCCC3)c2n1)c1ccc(CN2CCCC(F)(F)C2)cc1 [cpd 66] | 5.34 |

* * *

pIC50: −log10 of the molar value.
These compounds were tested on IDH1WT enzyme (Homo sapiens); pIC50 is the recorded read-out.
Sequence (O75874 whole entry): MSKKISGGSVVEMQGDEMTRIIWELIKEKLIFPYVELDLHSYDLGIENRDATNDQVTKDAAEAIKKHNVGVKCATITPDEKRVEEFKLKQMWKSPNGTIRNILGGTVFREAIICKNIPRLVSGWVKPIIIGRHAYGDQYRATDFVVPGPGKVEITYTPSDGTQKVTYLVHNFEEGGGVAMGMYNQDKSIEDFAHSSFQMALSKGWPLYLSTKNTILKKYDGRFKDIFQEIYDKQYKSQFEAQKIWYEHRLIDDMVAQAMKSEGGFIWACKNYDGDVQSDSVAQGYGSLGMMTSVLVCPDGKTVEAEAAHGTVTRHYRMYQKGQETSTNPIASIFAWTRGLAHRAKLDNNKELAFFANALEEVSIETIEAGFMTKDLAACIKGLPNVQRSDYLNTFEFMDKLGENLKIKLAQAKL

| COMPOUND | pIC50 |
| --- | --- |
| C=CC(=O)N1CC=C(c2ccc([C@H](C)Nc3ncc4ccc(=O)n([C@@H](C)C(C)C)c4n3)cc2)CC1 | 6.12 |
| C=CC(=O)N1CCN(c2ccc([C@H](C)Nc3ncc4ccc(=O)n([C@@H](C)C(C)C)c4n3)cn2)CC1 | 5.67 |
| C=CC(=O)N1CCN([C@H](CC2CC2)c2ccc(C3(Nc4ncc5ccc(=O)n(C(C)C)c5n4)CC3)cc2)CC1 (single isomer, unassigned) | 6.65 |
| C=CC(=O)N1CCC(C#N)(c2ccc([C@H](C)Nc3ncc4ccc(=O)n(C(C)C)c4n3)cc2)CC1 | 6.93 |
| C=CC(=O)N1CCN(c2ccc([C@H](C)Nc3ncc4ccc(=O)n([C@@H](C)C(C)C)c4n3)cc2)CC1 | 5.93 |
| C=CC(=O)N1CCN(C(=O)c2ccc([C@H](C)Nc3ncc4ccc(=O)n([C@@H](C)C(C)C)c4n3)cc2F)CC1 | 5.52 |
| C=C(C)C(=O)N1CCN(Cc2ccc([C@H](C)Nc3ncc4ccc(=O)n([C@@H](C)C(C)C)c4n3)cc2)CC1 | 5.41 |
| C=CC(=O)N1CCN(Cc2ccc([C@H](C)Nc3nc(N)c4ccc(=O)n(C(C)C)c4n3)cc2)CC1 | 6.66 |
| C=CC(=O)N1CCN(C(CC2CC2)c2ccc(C3(Nc4ncc5ccc(=O)n(C(C)C)c5n4)CC3)cc2)CC1 (centres unmarked) | 6.66 |
| C=C(C)C(=O)N1CCN(Cc2ccc([C@H](C)Nc3ncc4ccc(=O)n(CC(C)(C)C)c4n3)cc2)CC1 | 5.17 |
| C=CC(=O)N1CCN([C@H](CC)c2ccc([C@H](C)Nc3ncc4ccc(=O)n(C(C)C)c4n3)cc2)CC1 | 7.56 |
| C=CC(=O)N1CCN(C(CC)c2ccc([C@H](C)Nc3ncc4ccc(=O)n(CC)c4n3)cc2)CC1 (some centres unmarked) | 7.19 |
| C=CC(=O)N1CCN(Cc2ccc([C@H](C)Nc3ncc4ccc(=O)n(CC(C)(C)CO)c4n3)cc2)CC1 | 5.31 |
| C[C@H](Nc1ncc2ccc(=O)n(CC(C)(C)C)c2n1)c1ccc(CN2CCC(F)(F)CC2)cc1 | 5.69 |
| C=CC(=O)N1CCC(Oc2ccc([C@H](C)Nc3ncc4ccc(=O)n([C@@H](C)C(C)C)c4n3)cc2)CC1 | 5.76 |
| C=CC(=O)N1CCN([C@@H](CC)c2ccc([C@H](C)Nc3ncc4ccc(=O)n(C(C)C)c4n3)cc2)CC1 | 6.96 |
| C=CC(=O)N1CCN(Cc2ccc([C@H](C)Nc3ncc4ccc(=O)n(CC(C)(C)C)c4n3)cc2F)CC1 | 5.74 |

* * *

# TEST_TARGET: IDH2^R172K (Homo sapiens, UniProt P48735, R172K)
# Sequence (P48735 40-452 R172K): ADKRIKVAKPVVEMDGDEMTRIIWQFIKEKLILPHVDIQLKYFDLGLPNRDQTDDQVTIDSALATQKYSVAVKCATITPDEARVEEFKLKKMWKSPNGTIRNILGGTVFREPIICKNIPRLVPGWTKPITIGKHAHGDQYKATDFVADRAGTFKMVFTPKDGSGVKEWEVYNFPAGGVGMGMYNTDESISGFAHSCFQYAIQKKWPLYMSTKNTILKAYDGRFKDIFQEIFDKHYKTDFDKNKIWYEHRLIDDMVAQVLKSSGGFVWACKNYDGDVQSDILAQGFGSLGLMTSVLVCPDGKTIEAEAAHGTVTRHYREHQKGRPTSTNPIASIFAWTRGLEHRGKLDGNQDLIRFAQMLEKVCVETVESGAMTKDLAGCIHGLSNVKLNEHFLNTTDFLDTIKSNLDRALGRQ
# TEST_METHOD_NOTES: NADPH depletion assay, IDH2 R172K
# binning rule on IC50: bucket 1 (below 300 nM), bucket 2 (300 nM to below 5000 nM), bucket 3 (5000 nM or more)

| MOLECULE | LABEL |
| --- | --- |
| C[C@H](Nc1ncc2ccc(=O)n(Cc3ccccc3F)c2n1)c1ccc(Cl)cc1 [cpd 22] | bucket 2 |
| C[C@H](Nc1ncc2ccc(=O)n(CC(C)(C)C)c2n1)c1ccc(CN2CCC(F)(F)CC2)cc1F [cpd 152] | bucket 3 |
| C[C@H](Nc1ncc2ccc(=O)n(Cc3ccccc3)c2n1)c1ccc(Cl)cc1 [cpd 16] | bucket 2 |
| C=CC(=O)N1CC=C(c2ccc([C@H](C)Nc3ncc4ccc(=O)n([C@@H](C)C(C)C)c4n3)nc2)CC1 [cpd 194] | bucket 2 |
| C=CC(=O)N1CCN([C@@H](CC2CC2)c2ccc([C@H](C)Nc3ncc4ccc(=O)n(C(C)C)c4n3)cc2)CC1 [cpd 230] | bucket 1 |
| C=CC(=O)N1CCN(Cc2ccc([C@H](C)Nc3ncc4ccc(=O)n(CC)c4n3)cc2)CC1 [cpd 186] | bucket 2 |
| C=CC(=O)N1CCN(C(CC)c2ccc([C@@H](C)Nc3ncc4ccc(=O)n(C(C)C)c4n3)cc2)CC1 (stereo in doubt) [cpd 229] | bucket 2 |
| C=CC(=O)N1CCN(C(CC2CC2)c2ccc(C3(Nc4ncc5ccc(=O)n(C(C)C)c5n4)CC3)cc2)CC1 (stereo not drawn) [cpd 244] | bucket 1 |
| C[C@H](Nc1ncc2ccc(=O)n(CC(C)(C)C)c2n1)c1ccc2ccccc2c1 [cpd 36] | bucket 3 |
| C=CC(=O)N1CCN(Cc2ccc([C@H](C)Nc3ncc4ccc(=O)n(CC(C)(C)C)c4n3)cc2F)CC1 [cpd 141] | bucket 1 |
| C=CC(=O)N1CCN(Cc2ccc([C@H](C)Nc3ncc4ccc(=O)n(CC(C)(C)C)c4n3)cc2)CC1 [cpd 139] | bucket 1 |
| C[C@H](Nc1ncc2ccc(=O)n(Cc3cccc(O)c3)c2n1)c1ccc(Cl)cc1 [cpd 71] | bucket 2 |
| CC(Nc1ncc2ccc(=O)n(Cc3c(F)cccc3F)c2n1)c1ccc(CN2CCC(F)(F)CC2)cc1 (stereo not drawn) [cpd 98] | bucket 3 |
| C=CC(=O)N1CCN(C(CC)c2ccc(C3(Nc4ncc5ccc(=O)n(C(C)C)c5n4)CC3)cc2)CC1 (stereo not drawn) [cpd 247] | bucket 1 |
| C=CC(=O)N1CCN(Cc2ccc([C@H](C)Nc3nc(N)c4ccc(=O)n(C(C)C)c4n3)cc2)CC1 [cpd 206] | bucket 1 |
| C=CC(=O)N1CCN([C@@H](CC2CC2)c2ccc(C3(Nc4ncc5ccc(=O)n(C(C)C)c5n4)CC3)cc2)CC1 (single isomer, unassigned) [cpd 246] | bucket 1 |
| C[C@H](Nc1ncc2ccc(=O)n(CC(C)(C)C)c2n1)c1ccc(OC2CCN(C(=O)OC(C)(C)C)CC2)cc1 [cpd 154] | bucket 3 |
| C[C@H](Nc1ncc2ccc(=O)n(Cc3ccc(F)c(F)c3)c2n1)c1ccc(Cl)cc1 [cpd 23] | bucket 2 |
| C[C@H](Nc1ncc2ccc(=O)n(CC(F)(F)F)c2n1)c1ccc(CN2CCC(F)(F)CC2)cc1 [cpd 106] | bucket 2 |
| C[C@H](Nc1ncc2ccc(=O)n(CC(C)(C)C)c2n1)c1ccc(CN2CCC(F)(F)C2)cc1 [cpd 148] | bucket 3 |
| C=CC(=O)N1CCN([C@@H](CC)c2ccc(C3(Nc4ncc5ccc(=O)n(C(C)C)c5n4)CC3)cc2)CC1 (single isomer, unassigned) [cpd 249] | bucket 1 |
| C=CC(=O)N1CCN(c2ccc([C@H](C)Nc3ncc4ccc(=O)n([C@@H](C)C(C)C)c4n3)cn2)CC1 [cpd 181] | bucket 2 |
| C=CC(=O)N1CCN([C@H](CC)c2ccc(C3(Nc4ncc5ccc(=O)n(C(C)C)c5n4)CC3)cc2)CC1 (single isomer, unassigned) [cpd 248] | bucket 1 |
| C=CC(=O)N1CCN(C(CC2CC2)c2ccc([C@H](C)Nc3ncc4ccc(=O)n(CC)c4n3)cc2)CC1 (stereo partly drawn) [cpd 219] | bucket 1 |
| C=CC(=O)N1CCN(C(=O)c2ccc([C@H](C)Nc3ncc4ccc(=O)n(CC)c4n3)cc2)CC1 [cpd 190] | bucket 2 |
| C[C@H](Nc1ncc2ccc(=O)n(CC(C)(C)C)c2n1)c1ccc(Br)cc1 [cpd 34] | bucket 2 |

The measured values listed here are drawn from patent US12018023B2.
